- PROCEDURE_SUMMARY: Calcium Scale Inhibitor Test (NACE test method TM-03-74), calcium carbonate scale
- ASSAY_SETUP: 10 ppm based on active acid content; 72 Hrs.
The entries below are paired with their reported Percent Inhibition at 72 Hrs..
Supply the numeric figure in %, leaving out any unit text.

Please review the entries below; each comes with its answer.
QUERY: Reported Percent Inhibition at 72 Hrs., compound O=P(O)(O)CN(CCN1CCN(CCN(CP(=O)(O)O)CP(=O)(O)O)CC1)CC(O)CS(=O)(=O)O (stereo not shown) : ____
RESULT: 75

QUERY: Reported Percent Inhibition at 72 Hrs., compound `O=P(O)(O)CN(CCN1CCN(CCN(CP(=O)(O)O)CP(=O)(O)O)CC1)CP(=O)(O)O` : ____
RESULT: 89

QUERY: Reported Percent Inhibition at 72 Hrs., compound CC(O)CN(CCN1CCN(CCN(CP(=O)(O)O)CP(=O)(O)O)CC1)CP(=O)(O)O (stereo not shown) : ____
RESULT: 73

QUERY: Reported Percent Inhibition at 72 Hrs., compound O=P(O)(O)CN(CCCN1CCN(CCCN(CP(=O)(O)O)CP(=O)(O)O)CC1)CC(O)CS(=O)(=O)O (stereo not shown) : ____
RESULT: 79

QUERY: Reported Percent Inhibition at 72 Hrs., compound `O=P(O)(O)CNCCN1CCN(CCN(CP(=O)(O)O)CP(=O)(O)O)CC1` : ____
RESULT: 79

QUERY: Reported Percent Inhibition at 72 Hrs., compound `O=P(O)(O)CNCCCN1CCN(CCCN(CP(=O)(O)O)CP(=O)(O)O)CC1` : ____
RESULT: 91

QUERY: Reported Percent Inhibition at 72 Hrs., compound `O=P(O)(O)CN(CCCN1CCN(CCCN(CP(=O)(O)O)CP(=O)(O)O)CC1)CP(=O)(O)O` : ____
RESULT: 90

QUERY: Reported Percent Inhibition at 72 Hrs., compound O=P(O)(O)CN1CCN(CCN(CP(=O)(O)O)CP(=O)(O)O)CC1 [Example A, reference compound] : ____
RESULT: 60

QUERY: Reported Percent Inhibition at 72 Hrs., compound `O=C(O)CN(CCN1CCN(CCN(CP(=O)(O)O)CP(=O)(O)O)CC1)CP(=O)(O)O` : ____
RESULT: 83

Proceed to the following item.
QUERY: Reported Percent Inhibition at 72 Hrs., compound `O=C(O)CN(CCN1CCN(CCN(CC(=O)O)CC(=O)O)CC1)CC(=O)O` : ____
RESULT: 50

----------
- PROCEDURE_SUMMARY: Calcium Scale Inhibitor Test (NACE test method TM-03-74), calcium carbonate scale
- ASSAY_SETUP: 10 ppm based on active acid content; 48 Hrs.
So basically, if Percent Inhibition at 48 Hrs. comes in under 80% it's Condition met, and if it's 80% or more it's Condition not met.

QUERY: Does the reported Percent Inhibition at 48 Hrs. of CC(O)CN(CCN1CCN(CCN(CP(=O)(O)O)CP(=O)(O)O)CC1)CP(=O)(O)O (stereo not shown) [Example 8] stay below 80%?
RESULT: Condition met

QUERY: Does the reported Percent Inhibition at 48 Hrs. of O=P(O)(O)CN(CCN1CCN(CCN(CP(=O)(O)O)CP(=O)(O)O)CC1)CP(=O)(O)O [Example 3] stay below 80%?
RESULT: Condition not met

QUERY: Does the reported Percent Inhibition at 48 Hrs. of O=C(O)CN(CCN1CCN(CCN(CP(=O)(O)O)CP(=O)(O)O)CC1)CP(=O)(O)O [Example 5] stay below 80%?
RESULT: Condition not met

QUERY: Does the reported Percent Inhibition at 48 Hrs. of O=P(O)(O)CN1CCN(CCN(CP(=O)(O)O)CP(=O)(O)O)CC1 [Example A, reference compound] stay below 80%?
RESULT: Condition met

QUERY: Does the reported Percent Inhibition at 48 Hrs. of O=P(O)(O)CN(CCCN1CCN(CCCN(CP(=O)(O)O)CP(=O)(O)O)CC1)CC(O)CS(=O)(=O)O (stereo not shown) [Example 7] stay below 80%?
RESULT: Condition met

QUERY: Does the reported Percent Inhibition at 48 Hrs. of O=P(O)(O)CNCCN1CCN(CCN(CP(=O)(O)O)CP(=O)(O)O)CC1 [Example 4] stay below 80%?
RESULT: Condition not met

QUERY: Does the reported Percent Inhibition at 48 Hrs. of O=P(O)(O)CN(CCCN1CCN(CCCN(CP(=O)(O)O)CP(=O)(O)O)CC1)CP(=O)(O)O [Example 1] stay below 80%?
RESULT: Condition not met

QUERY: Does the reported Percent Inhibition at 48 Hrs. of O=P(O)(O)CNCCCN1CCN(CCCN(CP(=O)(O)O)CP(=O)(O)O)CC1 [Example 2] stay below 80%?
RESULT: Condition not met

Continuing:
QUERY: Does the reported Percent Inhibition at 48 Hrs. of O=P(O)(O)CN(CCN1CCN(CCN(CP(=O)(O)O)CP(=O)(O)O)CC1)CC(O)CS(=O)(=O)O (stereo not shown) [Example 6] stay below 80%?
RESULT: Condition met

QUERY: Does the reported Percent Inhibition at 48 Hrs. of O=C(O)CN(CCN1CCN(CCN(CC(=O)O)CC(=O)O)CC1)CC(=O)O [Example 9] stay below 80%?
RESULT: Condition met

Source listed as patent US4680396A.
